Reported RP-LC retention time values follow for various compounds
Protocol Notes: gradient 5% acetonitrile 3 min, to 50% in 2 min, to 85% in 15 min, held 3 min, 100 µL/min
Study Conditions: column: Zorbax Extend-C18 2.1 x 50 mm; eluents: water / acetonitrile, 0.1% formic acid
Assay Readout: RP-LC retention time (s)

INSERT INTO results (compound, assay_result) VALUES
  ('Cc1c(C(=O)NCCCn2ncccc2=O)nnn1-c1nccs1', 630),
  ('CC(=O)N1CCC2(CC1)Oc1ccccc1C1CC(c3ccccc3)=NN12 (stereo not given)', 953),
  ('O=C(CSc1nc2ccccc2[nH]1)Nc1nc2ccccc2s1', 577),
  ('Cc1ccc(NC(=O)Nc2ccccc2)c(=O)n1CC(=O)NCC1CCCO1 (stereo not given)', 697),
  ('CN1C(=O)C2CCCCN2c2ccc(C(=O)NCCCN3CCCCCC3)cc21 (stereo not given)', 627);

* * *

Protocol Notes: gradient 5% acetonitrile 3 min, to 50% in 2 min, to 85% in 15 min, held 3 min, 100 µL/min
Study Conditions: column: Zorbax Extend-C18 2.1 x 50 mm; eluents: water / acetonitrile, 0.1% formic acid
Each entry gets N if its RP-LC retention time stays under 900 s, and Y if its RP-LC retention time is 900 s or above.

INSERT INTO assay_data (molecule, category_label) VALUES
  ('Cn1cccc1C(=O)C(=O)Nc1ccccc1C(F)(F)F', 'Y'),
  ('CSc1ccc(NC(=O)Nc2c(-c3ccncc3)nc3ccccn23)cc1', 'N'),
  ('O=c1n(Cc2ccccc2Cl)nc2c(S(=O)(=O)N3CCOCC3)cccn12', 'N'),
  ('CCOc1ccc(-c2nc(C#N)c(N3CCN(C(=O)c4ccccc4Cl)CC3)o2)cc1', 'Y'),
  ('Cc1ccc(C(=O)CC2(O)C(=O)Nc3ccc(F)cc32)cc1C (stereo not given)', 'N'),
  ('COc1ccc(NC(=O)c2ccc3[nH]c4c(c3c2)CN(C(C)=O)CC4)c(OC)c1', 'N'),
  ('CCc1ccc(N2CC(c3noc(-c4ccccc4C)n3)CC2=O)cc1 (stereo not given)', 'Y'),
  ('O=C(Cc1cccs1)N1CCCC1c1nc(-c2ccc(F)cc2F)no1 (stereo not given)', 'Y'),
  ('CC1=NC(C)(C)CC2CCC(O)C12 (stereo not given)', 'N');

* * *

Protocol Notes: gradient 5% acetonitrile 3 min, to 50% in 2 min, to 85% in 15 min, held 3 min, 100 µL/min
Study Conditions: column: Zorbax Extend-C18 2.1 x 50 mm; eluents: water / acetonitrile, 0.1% formic acid
Exam item: assign 1 to entries whose RP-LC retention time is below 900 s and -1 to entries at or above 900 s. Note that a value of exactly 900 s receives -1.

INSERT INTO measurements (compound, category_label) VALUES
  ('COC(=O)c1cn(Cc2cc(C)ccc2C)nc1S(=O)(=O)N(C)c1ccc(C)cc1', -1),
  ('O=C(NCc1[nH]nc2ccccc12)c1ccc(Br)o1', 1),
  ('Cc1ccc(NS(=O)(=O)c2cc(-c3nc(C(C)C)cs3)cs2)cc1C', -1),
  ('COc1ccc(CNC(=O)C2c3ccccc3C(=O)N3CCc4ccccc4C23)c(OC)c1 (centres undefined)', 1),
  ('Cc1cccc(N2CCN(C(=O)CN3C(=O)CN(C)C(=O)c4ccccc43)CC2)c1C', 1),
  ('O=C(c1cncc(Br)c1)N1CCCC(c2nnc(-c3ccccc3)o2)C1 (centres undefined)', 1),
  ('COC(=O)c1cccc(NC(=O)NC2CCCN2S(=O)(=O)c2ccc(Cl)cc2)c1 (centres undefined)', 1),
  ('CN(C)CCNC(=O)C1CCN(c2nc3ccc(-c4ccc(F)cc4)nc3s2)CC1', 1),
  ('Cc1ccc(-n2cc3c(c(C(=O)N4CCN(c5ccccn5)CC4)c2=O)CC(C)(C)CC3=O)cc1', 1),
  ('Cc1ccccc1S(=O)(=O)N1CCC2(CC1)NCCN=C2NCc1ccc(Cl)cc1', 1),
  ('O=C(Cn1c2c(c3ccccc31)CCC2)NCCn1ncccc1=O', 1),
  ('CS(=O)(=O)c1cccc(C(=O)Nc2nnc(-c3ccno3)o2)c1', 1),
  ('Fc1cccc(-c2nc(-c3ccc4c(c3)ncn4CCN3CCOCC3)no2)c1', 1),
  ('COc1ccc(-c2noc(C3CCCN3C(=O)Nc3ccc4c(c3)OCCO4)n2)cc1 (centres undefined)', 1),
  ('O=C(c1ccc(Cl)cc1)N1CCN(c2cc(-c3ccc(Cl)cc3)[nH]n2)CC1', -1),
  ('Cc1cccc(NC(=O)CN2C(=O)C(C(=O)N3CCCC3)Sc3ccccc32)c1C (centres undefined)', -1),
  ('NC(=O)c1ccccc1NC(=O)C1CN(c2nc3c(F)cccc3s2)C1', 1),
  ('O=C(Nc1cc(-c2ccsc2)no1)C1CC1', 1),
  ('O=C(c1ccsc1)N1CCN(c2cc(-c3ccccc3)[nH]n2)CC1', 1),
  ('CCC1(C(=O)Nc2ccc(OC)c(F)c2)CCCCC(=O)N1 (centres undefined)', 1),
  ('CC(C)NC(=O)c1ccc(-c2nc3cc(NS(=O)(=O)CCc4ccccc4)ccc3n2C)cc1', 1),
  ('Cc1cccc(-c2cc3n(n2)CCCN(C(=O)Cc2cccc(C(F)(F)F)c2)C3)c1', -1),
  ('Cc1cccc(S(=O)(=O)N(C)CC2CCOCC2)c1', 1),
  ('O=C(O)CC1CCCN(c2cnn(CC3CC3)c(=O)c2)C1 (centres undefined)', 1),
  ('COCCCn1c(=O)c2ccccc2n(Cc2nc(-c3ccccc3C)no2)c1=O', -1),
  ('O=C(Cn1nc(N2CCCCCC2)c2ccccc2c1=O)Nc1ccc(F)cc1', -1),
  ('O=C(CN1CCOCC1)Nc1ccc(Br)cc1', 1),
  ('Cc1ccccc1S(=O)(=O)N1CCC2(CC1)CC(OCc1ccccc1)CCO2 (centres undefined)', -1),
  ('COc1ccc(NC(=O)Cn2nc3cc(C)nc(-c4ccccc4)n3c2=O)c(OC)c1', 1),
  ('Cc1ccc(S(=O)(=O)Nc2ccc(-c3cn4ccccc4n3)cc2)cc1', 1),
  ('CCC(C)NC(=O)C1CCN(Cc2cc3ccccc3n2Cc2cccc(Cl)c2)CC1 (centres undefined)', 1),
  ('O=C(Nc1ccc(F)cc1)Oc1ccc[nH]c1=O', 1),
  ('Cc1oc(-c2ccc(NC(=O)c3ccc(Cl)s3)cc2)nc1Cn1cccn1', -1),
  ('O=C(Nc1ccc(SCC(=O)N2CCN(c3ccccc3)CC2)nn1)c1ccccc1', 1),
  ('CC(NC(=O)CCc1c(-c2ccc(Br)cc2)nc2ccccn12)c1ccccc1 (centres undefined)', 1);
